# credit: ChEMBL document CHEMBL1152942

Tested on: HCT-116
Assay: Cytotoxicity against human HCT116 cells after 3 days by MTT assay
Format: functional, cell-based
Conditions: Homo sapiens, HCT-116, 72 h
Items are presented alongside their recorded IC50.
Please give the number followed by its unit.

// returns reported IC50 for input `CCCCCC(=O)OC[C@H]1C2=C(C[C@H]3[C@H]4C5=C(C[C@@H]([C@H](C#N)N13)N4C)C(=O)C(C)=C(OC)C5=O)C(=O)C(C)=C(OC)C2=O`
100 nM

I have this molecule here, `COC1=C(C)C(=O)C2=C(C1=O)[C@@H]1[C@@H]3CC4=C(C(=O)C(OC)=C(C)C4=O)[C@H](COC(=O)C4CC=CC4)N3[C@@H](C#N)[C@H](C2)N1C` , and I need its recorded IC50.
33 nM

What does the data say about its IC50? Entry: `COC1=C(C)C(=O)C2=C(C1=O)[C@@H]1[C@@H]3CC4=C(C(=O)C(OC)=C(C)C4=O)[C@H](COC(=O)c4cnc5ccccc5c4)N3[C@@H](C#N)[C@H](C2)N1C`
10 nM
